- target under test: Cyclin-dependent kinase 2 (Homo sapiens, UniProt P24941)
- method description: Selectivity interaction (Kinase panel (enzymatic assay)) EUB0000595a CDK2

{"line notation": "COCC(=O)NC/C=C/c1ccc2ncnc(Nc3ccc(Oc4ccc(C)nc4)c(C)c3)c2c1", "IC50": "> 10 µM"}

----------
- target under test: D(2) dopamine receptor (Homo sapiens, UniProt P14416)
- Sequence (P14416 whole entry): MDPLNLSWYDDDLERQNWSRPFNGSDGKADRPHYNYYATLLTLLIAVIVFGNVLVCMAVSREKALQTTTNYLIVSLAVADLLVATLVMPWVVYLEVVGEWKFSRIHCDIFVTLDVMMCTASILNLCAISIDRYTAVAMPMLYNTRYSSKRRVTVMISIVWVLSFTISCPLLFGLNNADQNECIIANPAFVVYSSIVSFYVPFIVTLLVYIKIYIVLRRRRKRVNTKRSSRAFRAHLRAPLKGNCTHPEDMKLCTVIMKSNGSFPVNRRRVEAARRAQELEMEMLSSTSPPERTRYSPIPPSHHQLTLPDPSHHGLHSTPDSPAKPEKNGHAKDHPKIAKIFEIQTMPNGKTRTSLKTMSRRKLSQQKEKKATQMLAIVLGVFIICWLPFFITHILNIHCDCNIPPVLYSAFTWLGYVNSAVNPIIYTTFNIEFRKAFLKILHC
- method description: Selectivity interaction (Dopamine D2 receptor assay, human recombinant ) EUB0000877a DRD2

{"line notation": "CCC(=O)N1CC[C@H](Nc2ncnc3c2CN(c2cnc(OC)c(C(F)(F)F)c2)CC3)C1", "IC50": "> 30 µM"}

----------
- target under test: Receptor-interacting serine/threonine-protein kinase 2 (Homo sapiens, UniProt O43353)
- Sequence (O43353 whole entry): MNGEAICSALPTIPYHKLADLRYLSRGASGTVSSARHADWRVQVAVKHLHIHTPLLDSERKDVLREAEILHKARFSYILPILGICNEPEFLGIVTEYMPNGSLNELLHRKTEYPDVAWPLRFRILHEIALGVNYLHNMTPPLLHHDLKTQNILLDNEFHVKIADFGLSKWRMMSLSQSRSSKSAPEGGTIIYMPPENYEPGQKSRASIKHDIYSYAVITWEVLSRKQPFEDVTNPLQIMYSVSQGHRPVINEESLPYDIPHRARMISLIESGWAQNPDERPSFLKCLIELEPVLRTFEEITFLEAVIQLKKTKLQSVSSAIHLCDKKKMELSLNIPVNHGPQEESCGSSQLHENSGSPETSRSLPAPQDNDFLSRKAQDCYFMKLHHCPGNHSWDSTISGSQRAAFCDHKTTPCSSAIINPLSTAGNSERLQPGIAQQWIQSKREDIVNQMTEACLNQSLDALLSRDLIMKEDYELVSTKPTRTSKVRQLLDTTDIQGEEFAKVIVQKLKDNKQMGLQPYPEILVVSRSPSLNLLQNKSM
- method description: Selectivity interaction (NanoBRET assay (HEK293T cells)) EUB0000229b RIPK2
pIC50: −log10 of the molar value.
measured metric: pIC50

{"line notation": "COc1cc(N(C)c2ccnc3ccc(C(F)(F)F)cc23)cc(OC)c1OC", "target under test": "Receptor-interacting serine/threonine-protein kinase 2 (Homo sapiens, UniProt O43353)", "result": "< 5.00"}

----------
- target under test: Tyrosine-protein kinase JAK1 (Homo sapiens, UniProt P23458)
- Sequence (P23458 whole entry): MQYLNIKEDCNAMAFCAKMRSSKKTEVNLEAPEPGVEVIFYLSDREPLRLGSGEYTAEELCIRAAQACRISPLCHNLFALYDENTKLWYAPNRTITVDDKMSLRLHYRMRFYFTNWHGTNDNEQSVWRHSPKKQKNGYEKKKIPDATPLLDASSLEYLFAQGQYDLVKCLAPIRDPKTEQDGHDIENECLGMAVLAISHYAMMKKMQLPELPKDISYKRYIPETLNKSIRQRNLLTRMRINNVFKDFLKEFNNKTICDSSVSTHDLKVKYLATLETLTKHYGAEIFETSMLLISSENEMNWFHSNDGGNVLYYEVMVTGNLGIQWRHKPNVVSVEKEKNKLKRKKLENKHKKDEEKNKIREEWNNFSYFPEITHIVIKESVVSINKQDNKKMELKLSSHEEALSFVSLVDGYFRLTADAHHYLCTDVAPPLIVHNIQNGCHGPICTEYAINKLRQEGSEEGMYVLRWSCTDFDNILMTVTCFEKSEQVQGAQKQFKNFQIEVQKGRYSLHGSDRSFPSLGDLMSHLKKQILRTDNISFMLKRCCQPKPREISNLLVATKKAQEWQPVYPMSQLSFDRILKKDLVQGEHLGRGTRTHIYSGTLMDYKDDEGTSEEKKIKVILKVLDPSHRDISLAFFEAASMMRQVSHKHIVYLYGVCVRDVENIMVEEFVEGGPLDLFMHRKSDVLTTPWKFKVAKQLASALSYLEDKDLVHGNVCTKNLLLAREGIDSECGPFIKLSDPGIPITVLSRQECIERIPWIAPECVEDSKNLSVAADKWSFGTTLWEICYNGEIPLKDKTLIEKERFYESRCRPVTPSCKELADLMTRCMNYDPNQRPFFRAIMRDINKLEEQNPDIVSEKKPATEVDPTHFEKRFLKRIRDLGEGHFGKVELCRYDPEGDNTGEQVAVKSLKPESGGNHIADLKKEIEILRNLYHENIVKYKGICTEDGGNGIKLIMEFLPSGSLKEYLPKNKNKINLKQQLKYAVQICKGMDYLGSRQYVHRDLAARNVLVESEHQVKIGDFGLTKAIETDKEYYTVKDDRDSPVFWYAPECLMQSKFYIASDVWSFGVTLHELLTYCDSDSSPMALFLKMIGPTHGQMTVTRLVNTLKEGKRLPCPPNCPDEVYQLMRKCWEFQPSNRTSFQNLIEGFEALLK
- method description: Selectivity interaction (NanoBRET assay (HEK293T cells)) EUB0001558a JAK1
- Type: cell-based, HEK-293T
pEC50: −log10 of the molar value.
measured metric: pEC50

{"line notation": "CC(C)(O)[C@H](F)CN1Cc2cc(NC(=O)c3cnn4cccnc34)c(N3CCOCC3)cc2C1=O", "result": "< 4.30"}

----------
- target under test: Mitotic checkpoint serine/threonine-protein kinase BUB1 (Homo sapiens)
- Sequence (O43683 whole entry): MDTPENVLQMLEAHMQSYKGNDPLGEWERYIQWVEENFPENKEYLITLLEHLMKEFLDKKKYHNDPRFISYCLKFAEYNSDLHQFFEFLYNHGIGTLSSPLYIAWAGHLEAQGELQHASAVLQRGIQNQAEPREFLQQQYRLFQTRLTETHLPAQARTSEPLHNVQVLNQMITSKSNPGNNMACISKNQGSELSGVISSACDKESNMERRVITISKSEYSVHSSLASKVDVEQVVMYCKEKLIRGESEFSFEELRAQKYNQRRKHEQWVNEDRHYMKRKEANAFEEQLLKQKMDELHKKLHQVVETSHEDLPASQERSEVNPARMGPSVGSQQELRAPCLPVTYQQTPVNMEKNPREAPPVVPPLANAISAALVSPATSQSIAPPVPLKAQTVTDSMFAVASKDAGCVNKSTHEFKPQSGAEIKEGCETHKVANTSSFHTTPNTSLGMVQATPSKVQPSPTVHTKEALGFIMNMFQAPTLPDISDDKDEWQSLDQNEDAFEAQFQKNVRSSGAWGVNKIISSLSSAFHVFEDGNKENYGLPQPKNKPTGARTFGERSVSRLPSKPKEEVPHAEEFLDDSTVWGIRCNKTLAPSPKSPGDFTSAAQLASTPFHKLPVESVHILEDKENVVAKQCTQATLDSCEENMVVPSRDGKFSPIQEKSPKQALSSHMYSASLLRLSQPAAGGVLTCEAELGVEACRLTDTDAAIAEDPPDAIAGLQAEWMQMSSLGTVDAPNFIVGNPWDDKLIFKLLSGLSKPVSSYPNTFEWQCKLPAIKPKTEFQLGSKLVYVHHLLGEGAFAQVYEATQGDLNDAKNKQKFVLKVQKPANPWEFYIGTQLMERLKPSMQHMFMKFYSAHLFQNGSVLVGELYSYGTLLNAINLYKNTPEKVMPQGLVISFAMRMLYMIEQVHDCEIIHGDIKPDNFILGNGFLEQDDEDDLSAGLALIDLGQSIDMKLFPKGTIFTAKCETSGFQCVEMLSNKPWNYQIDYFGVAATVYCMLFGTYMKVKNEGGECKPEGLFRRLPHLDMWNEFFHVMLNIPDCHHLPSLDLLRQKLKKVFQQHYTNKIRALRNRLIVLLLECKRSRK
- method description: Selectivity interaction (KinomeScan (DiscoverX, competition binding assay)) EUB0001548a BUB1
measured metric: IC50

{"line notation": "COc1cnccc1Nc1nc(-c2nn(Cc3c(F)cc(OCCO)cc3F)c3ccccc23)ncc1OC", "measured metric": "IC50", "result": "3.3 nM"}

----------
- target under test: CDK8/Cyclin C (Homo sapiens, UniProt P49336)
- Sequence (P49336 whole entry): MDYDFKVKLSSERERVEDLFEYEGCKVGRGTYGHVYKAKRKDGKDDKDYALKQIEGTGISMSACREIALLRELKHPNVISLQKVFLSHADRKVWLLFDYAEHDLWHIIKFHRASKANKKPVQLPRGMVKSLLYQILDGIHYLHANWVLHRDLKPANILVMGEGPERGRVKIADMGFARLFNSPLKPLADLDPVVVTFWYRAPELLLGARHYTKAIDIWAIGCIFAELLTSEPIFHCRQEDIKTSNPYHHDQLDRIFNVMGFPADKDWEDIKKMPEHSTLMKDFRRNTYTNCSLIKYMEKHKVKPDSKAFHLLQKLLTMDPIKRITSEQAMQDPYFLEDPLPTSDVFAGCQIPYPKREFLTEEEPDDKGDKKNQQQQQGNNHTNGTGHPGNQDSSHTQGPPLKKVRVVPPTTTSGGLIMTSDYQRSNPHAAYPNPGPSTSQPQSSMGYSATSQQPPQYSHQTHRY
- Sequence (P24863 whole entry, further chain): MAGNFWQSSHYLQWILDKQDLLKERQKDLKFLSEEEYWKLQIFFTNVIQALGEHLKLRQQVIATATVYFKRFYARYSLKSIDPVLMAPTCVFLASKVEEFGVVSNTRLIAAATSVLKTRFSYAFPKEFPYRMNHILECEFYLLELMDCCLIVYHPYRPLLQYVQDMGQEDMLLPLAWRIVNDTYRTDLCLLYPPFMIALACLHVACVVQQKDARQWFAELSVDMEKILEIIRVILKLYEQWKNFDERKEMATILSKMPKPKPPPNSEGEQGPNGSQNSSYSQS
- method description: Selectivity interaction (TR-FRET binding assay) EUB0000644a CDK8

{"line notation": "CC[C@@H]1CN(C(=O)NCC(F)(F)F)C[C@@H]1c1cnc2cnc3[nH]ccc3n12", "target under test": "CDK8/Cyclin C (Homo sapiens, UniProt P49336)", "IC50": "> 10 µM"}

----------
- target under test: Cyclin-dependent kinase 2/cyclin A (Homo sapiens, UniProt P24941)
- method description: Selectivity interaction (LanthaScreen Eu Kinase Binding Assay (Invitrogen)) EUB0000121b CDK2
- Format: protein-complex assay

{"line notation": "COc1ccccc1-c1cc(Nc2cccc(CS(N)(=O)=O)c2)ncn1", "value unit": "nM", "IC50": 1010}

----------
- target under test: 5-hydroxytryptamine receptor 2A (Homo sapiens)
- Sequence (P28223 whole entry): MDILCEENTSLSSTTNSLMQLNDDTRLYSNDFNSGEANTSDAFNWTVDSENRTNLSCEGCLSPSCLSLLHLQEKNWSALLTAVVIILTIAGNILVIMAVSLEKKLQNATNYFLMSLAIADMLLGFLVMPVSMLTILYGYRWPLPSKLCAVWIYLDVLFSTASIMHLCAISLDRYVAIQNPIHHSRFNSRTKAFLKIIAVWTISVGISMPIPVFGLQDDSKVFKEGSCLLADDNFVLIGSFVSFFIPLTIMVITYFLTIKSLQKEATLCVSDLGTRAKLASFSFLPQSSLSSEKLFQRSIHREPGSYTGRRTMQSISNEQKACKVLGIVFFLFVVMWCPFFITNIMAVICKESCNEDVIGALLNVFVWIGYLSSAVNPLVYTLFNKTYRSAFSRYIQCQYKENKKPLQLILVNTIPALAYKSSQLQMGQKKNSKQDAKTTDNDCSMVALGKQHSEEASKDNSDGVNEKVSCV
- method description: Selectivity interaction (Serotonin 5HT2A Calcium flux assay, agonist and antagonist mode ) EUB0000877a HTR2A
pIC50: −log10 of the molar value.

{"line notation": "CCC(=O)N1CC[C@H](Nc2ncnc3c2CN(c2cnc(OC)c(C(F)(F)F)c2)CC3)C1", "pIC50": "< 4.52"}

----------
- method description: Selectivity interaction (Kinase panel (cellular selectivity, Bright-Glo proliferation assay in BaF3 Cell line, Promega)) EUB0000678a FLT4

{"compound": "CCN1CCN(c2ccc(Nc3cc(N(C)C(=O)Nc4c(Cl)c(OC)cc(OC)c4Cl)ncn3)cc2)CC1 [INFIGRATINIB]", "IC50 [nM]": 2070}

meta.source: ChEMBL document CHEMBL5465560
